# Tested on: Yersinia pseudotuberculosis
# assay_comment: Inhibition of type 3 secretion in Yersinia pseudotuberculosis at 100 uM by reporter gene assay
Active and inactive are the calls of the source. No cut-off for these calls is given here.
property_label: inhibition

Known inhibition results, listed for orientation:
COc1ccccc1N1CCN(Cc2cc([N+](=O)[O-])c3cccnc3c2O)CC1; 85%
O=[N+]([O-])c1cc(CN2CCN(c3ccccc3)CC2)c(O)c2ncccc12; 97%
Oc1c(CN2CCN(c3ccc(F)cc3)CC2)cc(Cl)c2cccnc12; 97%
Oc1c(CN2CCN(c3ccc(F)cc3)CC2)cc(Br)c2cccnc12; 89%
O=[N+]([O-])c1ccc(O)c(CN2CCN(c3ccccc3)CC2)c1; inactive
Oc1c(CN2CCN(c3ccc(F)cc3)CC2)ccc2cccnc12; 95%
COc1c(CN2CCN(c3ccccc3)CC2)cc(Br)c2cccnc12; inactive
COc1c(CN2CCN(c3ccccc3)CC2)cc(Cl)c2cccnc12; inactive
Oc1c(CN2CCN(c3ccccn3)CC2)cc(Cl)c2cccnc12; 98%
CCOc1ccccc1N1CCN(Cc2cc(Cl)c3cccnc3c2O)CC1; 89%

Then this compound:
In: Identify the reported inhibition for the following entry. "CN1CCN(Cc2cc(Cl)c3cccnc3c2O)CC1"
Out: 48%

###

# Test system: Yersinia pseudotuberculosis
# assay_comment: Inhibition of type 3 secretion in Yersinia pseudotuberculosis at 10 uM by reporter gene assay
Activity calls are given as the source filed them. The rule behind the calls is not given here.
property_label: inhibition

Known inhibition results, listed for orientation:
CC1CN(Cc2cc([N+](=O)[O-])c3cccnc3c2O)CC(C)O1 (stereo unspecified); inactive
O=[N+]([O-])c1cc(CN2CCN(c3ccccc3)CC2)c(O)c2ncccc12; 66%
COc1c(CN2CCN(c3ccccc3)CC2)cc(Br)c2cccnc12; inactive
COc1c(CN2CCN(c3ccccc3)CC2)cc(Cl)c2cccnc12; inactive

In: # lookup: Yersinia pseudotuberculosis inhibition, key = "CN1CCN(Cc2cc(Cl)c3cccnc3c2O)CC1"
Out: inactive

In: # lookup: Yersinia pseudotuberculosis inhibition, key = O=[N+]([O-])c1cc(CN2CCC(c3ccccc3)C2)c(O)c2ncccc12 (racemic)
Out: 54%

In: # lookup: Yersinia pseudotuberculosis inhibition, key = "O=[N+]([O-])c1ccc(O)c(CN2CCN(c3ccc(Cl)cc3)CC2)c1"
Out: inactive

In: # lookup: Yersinia pseudotuberculosis inhibition, key = "O=[N+]([O-])c1cc(CN2CCN(c3ccccc3)CC2)c(O)c2ccccc12"
Out: inactive

###

# Tested on: Yersinia pseudotuberculosis
# assay_comment: Inhibition of type 3 secretion in Yersinia pseudotuberculosis at 50 uM by reporter gene assay
Activity calls are given as the source filed them. The calls are words filed in the database; no cut-off is given here.
property_label: inhibition

Known inhibition results, listed for orientation:
Oc1c(CN2CCN(c3ccc(F)cc3)CC2)cc(Cl)c2cccnc12; 93%
CCOc1ccccc1N1CCN(Cc2cc(Cl)c3cccnc3c2O)CC1; 37%
Oc1c(CN2CCN(c3ccc(F)cc3)CC2)ccc2cccnc12; 58%
Cc1cccc(N2CCN(Cc3cc(Br)c4cccnc4c3O)CC2)c1; 41%
O=[N+]([O-])c1ccc(O)c(CN2CCN(c3ccc(Cl)cc3)CC2)c1; inactive

In: Identify the reported inhibition for the following entry. "COc1c(CN2CCN(c3ccccc3)CC2)cc(Cl)c2cccnc12"
Out: inactive

###

# System: Yersinia pseudotuberculosis
# assay_comment: Inhibition of type 3 secretion in Yersinia pseudotuberculosis at 10 uM by reporter gene assay
Activity calls are given as the source filed them. The calls are words filed in the database; no cut-off is given here.
property_label: inhibition

Cc1cccc(N2CCN(Cc3cc(Br)c4cccnc4c3O)CC2)c1; inactive
COc1ccccc1N1CCN(Cc2cc([N+](=O)[O-])c3cccnc3c2O)CC1; inactive
Oc1c(CN2CCN(c3ccc(F)cc3)CC2)ccc2cccnc12; inactive
